Assay: Ratio of drug uptake in Kunming mouse brain to plasma at 1.5 mg/kg, iv measured after 30 mins by LC/MS/MS analysis
Format: ADME, organism-based
Conditions: read-out: BPR
Measured quantity: Kp at 0.5 h
Keep it simple and answer with nothing but the number.

Q: Please look up its Kp at 0.5 h: Cc1cc(N2CCc3sccc3C2)cc(C)c1NC(=O)CC(C)(C)C
Ans: 0.14

----------
Assay: Drug uptake in Kunming mouse plasma at 1.5 mg/kg, iv measured after 5 mins by LC/MS/MS analysis
Type: ADME, organism-based
Measured quantity: concentration at 5 min (ng/mL)
Your answer is read as ng/mL, so omit the unit and give the number.

Q: Please look up its concentration at 5 min: Cc1cc(N2CCc3sccc3C2)cc(C)c1NC(=O)CC(C)(C)C
Ans: 771
